Quick list: microsomal CLint at 1 uM per entry.
- assay-text: Metabolic stability in human hepatic microsome
- Format: in vitro ADME
- test-context: microsomes, pH 7.4; human hepatic microsome, NADPH(+); read-out: CL NADPH(+)
Positions of bridges follow the written chain, without caps; N, C: chain ends. Non-standard residues stand in square brackets, D forms with d. Residues, ends and D or L forms follow the SMILES beside them. *: point of attachment. NMeF = CN[C@@H](Cc1ccccc1)C(=O)O; NMeI = CC[C@H](C)[C@H](NC)C(=O)O; NMeL = CN[C@@H](CC(C)C)C(=O)O; NMeV = CN[C@H](C(=O)O)C(C)C; NMeA = CN[C@@H](C)C(=O)O; Piperidide = C1CCN(*)CC1; Sar = CNCC(=O)O; tBu = CC(C)(C)*
A bare number is not enough; add the unit after it.

Recorded results for 4 compounds are shown here.
Prompt line: What value of microsomal CLint at 1 uM has been recorded for this entry: CC(C)C[C@H]1C(=O)N(C)[C@@H](C(C)C)C(=O)N(C)[C@@H](C)C(=O)N[C@@H](Cc2ccccc2)C(=O)N(C)[C@@H](C)C(=O)N[C@H](C(=O)N2CCCCC2)CC(=O)N(C)[C@@H](C)C(=O)N[C@@H]([C@@H](C)O)C(=O)N(C)[C@@H](C)C(=O)N[C@@H](C)C(=O)N(C)[C@@H](Cc2ccccc2)C(=O)N1C [DP-322] ([NMeA]T[NMeA]A[NMeF][NMeL][NMeV][NMeA]F[NMeA]D-Piperidide; lactam N-11)
Response line: 74 µL/min/mg

Prompt line: Could you do the same for CC(C)C[C@H]1C(=O)N[C@@H](COC(C)(C)C)C(=O)N(C)[C@@H](Cc2ccccc2)C(=O)N(C)[C@@H](CC(C)C)C(=O)N[C@H](C(=O)N2CCCCC2)CC(=O)N(C)CC(=O)N[C@@H]([C@@H](C)O)C(=O)N1C [DP-743] ([Sar]T[NMeL]S(tBu)[NMeF][NMeL]D-Piperidide; lactam N-7) , please?
Response line: 126 µL/min/mg

Prompt line: Could you do the same for CC[C@H](C)[C@H]1C(=O)N(C)CC(=O)N(C)[C@@H](C(C)C)C(=O)N[C@@H]([C@@H](C)O)C(=O)N[C@H](C(=O)N2CCCCC2)CC(=O)N[C@H](C(C)C)C(=O)N(C)[C@@H](C)C(=O)N(C)[C@@H](CC(C)C)C(=O)N[C@@H](CC(C)C)C(=O)N(C)[C@@H](Cc2ccccc2)C(=O)N[C@@H](Cc2ccccc2)C(=O)N1C [DP-233] ([dV][NMeA][NMeL]L[NMeF]F[NMeI][Sar][NMeV]TD-Piperidide; lactam N-11) , please?
Response line: 39 µL/min/mg

Prompt line: Could you do the same for CC(C)C[C@H]1C(=O)NCC(=O)N[C@H](C(=O)N2CCCCC2)CC(=O)N[C@H](C(C)C)C(=O)N[C@@H]([C@@H](C)O)C(=O)N(C)[C@@H](C)C(=O)N(C)[C@@H](Cc2ccccc2)C(=O)N(C)[C@@H](Cc2ccccc2)C(=O)N[C@@H](COC(C)(C)C)C(=O)N1C [DP-176] ([dV]T[NMeA][NMeF][NMeF]S(tBu)[NMeL]GD-Piperidide; lactam N-9) , please?
Response line: 47 µL/min/mg

Could you now consider this next compound?
Prompt line: What value of microsomal CLint at 1 uM has been recorded for this entry: CC[C@H](C)[C@@H]1NC(=O)[C@@H](C)NC(=O)C[C@@H](C(=O)N(C)[C@@H](Cc2ccccc2)C(=O)N[C@@H](C)C(=O)N2CCCCC2)NC(=O)[C@H](Cc2ccccc2)N(C)C(=O)[C@H](C)NC(=O)[C@H](CC(C)C)N(C)C(=O)[C@H](C)N(C)C(=O)[C@H]([C@@H](C)O)NC(=O)[C@H](C(C)C)N(C)C(=O)[C@H](C)N(C)C1=O [DP-491] ([dA]I[NMeA][NMeV]T[NMeA][NMeL]A[NMeF]D[NMeF]A-Piperidide; lactam N-10)
Response line: 39 µL/min/mg

Data provenance: patent US9409952B2
